Attribution: ChEMBL document CHEMBL1201862

System: Hs-578T
Experiment: NCI tumour cell line growth inhibition, 48 h
Activity calls are given as the source filed them. Cut-off read from the data, not from the text of the source: active = GI50 up to about 1.1 µM and inactive = higher.
Outcomes: active, inactive

Cc1c(-c2nc3ccccc3[nH]2)c(=O)n(-c2ccccc2)n1C: inactive
CC[N+](CC)(CC)/C(=N\S(=O)(=O)c1ccc(Cl)cc1)[N-]S(=O)(=O)c1cc(C)c(Cl)cc1S: inactive
CC(C)CNC(=O)Cn1c2c(c3ccccc31)CCCC2: inactive
COC(=O)C[C@H](COCc1ccccc1)NC(=O)C[C@H](COCc1ccccc1)NC(=O)OC(C)(C)C: inactive
Cc1sc2nc(-c3cccc([N+](=O)[O-])c3)c(/C=N/N=C(N)N)n2c1C: inactive
CCCCNC(=O)Nc1c(C(N)=O)c2n(c1C(=O)OCC)CCCCC2: inactive
COc1cccc(-c2cc(=O)c3cc(N4CCCCC4)ccc3[nH]2)c1: active
Nc1ncnc2c1ncn2C1OC(CO)CC1O (configuration not stated): inactive
CCOC(=O)C(C)(C)C(O)C(C)C (configuration not stated): inactive
NC1CNC(=O)c2c(Cl)sc(Cl)c21 (configuration not stated): inactive
CSc1nc(-c2ccc(C)cc2)c(C#N)c(=O)[nH]1: inactive
C=CCCCC1CCCNC1=S (configuration not stated): inactive
